The listing below reports IC50 for compounds tested on Acetylcholinesterase (Homo sapiens).
Sequence (P22303 whole entry): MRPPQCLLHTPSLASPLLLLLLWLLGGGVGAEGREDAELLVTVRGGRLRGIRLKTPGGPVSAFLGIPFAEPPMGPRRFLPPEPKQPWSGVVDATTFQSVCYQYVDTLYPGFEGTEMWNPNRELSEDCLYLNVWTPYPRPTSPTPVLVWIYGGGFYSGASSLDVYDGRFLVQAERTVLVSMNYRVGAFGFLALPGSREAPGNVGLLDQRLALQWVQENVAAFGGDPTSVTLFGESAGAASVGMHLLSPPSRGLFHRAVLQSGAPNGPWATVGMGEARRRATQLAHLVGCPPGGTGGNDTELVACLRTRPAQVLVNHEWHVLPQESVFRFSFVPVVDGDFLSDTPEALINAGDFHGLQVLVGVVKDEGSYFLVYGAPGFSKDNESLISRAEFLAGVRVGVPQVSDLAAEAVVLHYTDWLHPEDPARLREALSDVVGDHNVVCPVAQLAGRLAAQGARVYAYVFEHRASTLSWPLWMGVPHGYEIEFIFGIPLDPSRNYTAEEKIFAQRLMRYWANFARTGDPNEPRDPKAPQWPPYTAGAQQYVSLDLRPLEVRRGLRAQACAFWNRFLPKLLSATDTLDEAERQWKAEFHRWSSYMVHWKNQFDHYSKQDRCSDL
Expressed in nM, but write only the number.

Below, each entry is followed by its recorded IC50 result.
C=CCOc1ccc(/C=N/[C@@]23CC(C)=C[C@@H](Cc4[nH]c(=O)ccc42)/C3=C\C)cc1 : 31
C/C=C1\[C@H]2C=C(C)C[C@]1(/N=C/c1ccc(N(C)C)cc1)c1ccc(=O)[nH]c1C2 : 31
C/C=C1\[C@H]2C=C(C)C[C@]1(/N=C/c1cc(OC)cc(OC)c1)c1ccc(=O)[nH]c1C2 : 29
C/C=C1\[C@H]2C=C(C)C[C@]1(/N=C/c1ccc(C#N)cc1)c1ccc(=O)[nH]c1C2 : 22
C/C=C1\[C@H]2C=C(C)C[C@]1(/N=C/c1ccc(OC)cc1OC)c1ccc(=O)[nH]c1C2 : 84

Which IC50 value belongs to C/C=C1\[C@H]2C=C(C)C[C@]1(/N=C/C(=C/c1ccccc1)CCCCC)c1ccc(=O)[nH]c1C2 ?
51
